The reported measurements were obtained from patent US20210130452A1.

target-under-test: T1, rat IL-17F (rat, UniProt Q5BJ95 29-161)
T1 sequence (looked up): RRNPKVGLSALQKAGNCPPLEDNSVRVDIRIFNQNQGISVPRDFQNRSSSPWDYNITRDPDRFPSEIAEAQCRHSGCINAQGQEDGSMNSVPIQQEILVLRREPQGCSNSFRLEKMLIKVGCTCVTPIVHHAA
assay-remarks: ELISA, coated IL-17F;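 note: binding ELISA on coated antigen from various species, with bound Nanobodies revealed by an HRP-linked anti-myc antibody and esTMB substrate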

{"binder": "16A04 (VHH, Class 3; also called IL17MS16A04) VHH: EVQLVESGGGLVQAGGSLRLSCAASGRTFSSYVVGWFRQAPGKEREFIGAISGSGDSIYYAVSEKDRFTISRDNGKNTLYLQMSSLKAEDTAVYYCTADQEFGYLRFGRSEYWGQGTQVTVSS", "OD": "0.0015 OD"}
{"binder": "08H01 (VHH, Class 3) VHH: EVQLVESGGGLVQAGGSLRLSCGASGGTFSSYATGWFRQAPGKEREFVAVLRWSDSHTAYADSVEGRFTISRDGAKNTVYLQMSSLKPEDTAIYYCTTGTRPGEWHYWGQGTQVTVSS", "OD": "0.0045 OD"}
{"binder": "03C07 (VHH, Class 2) VHH: EVQLVESGGGLVQAGGSLRLSCAASGFTFDDYAIGWFRQAPGKEREAVSCFSSSDGSIYYADSVKGRFTISSDNAKNTVYLQMNSLKPEDTAVYYCAGGGGSYYYTQLNYCYDMDYWGKGTQVTVSS", "OD": "0.0015 OD"}
